target: DNA topoisomerase 2-alpha (Homo sapiens, UniProt P11388); test: Poison activity at human Topo2alpha expressed in baculovirus-infected insect cells using pBR322 as substrate assessed as concentration required to observe the same amount of topo2/DNA cleavage complex generated by etoposide at 20 uM after 6 minutes by ethidium bromide staining based agarose gel electrophoresis
Sequence (P11388 whole entry): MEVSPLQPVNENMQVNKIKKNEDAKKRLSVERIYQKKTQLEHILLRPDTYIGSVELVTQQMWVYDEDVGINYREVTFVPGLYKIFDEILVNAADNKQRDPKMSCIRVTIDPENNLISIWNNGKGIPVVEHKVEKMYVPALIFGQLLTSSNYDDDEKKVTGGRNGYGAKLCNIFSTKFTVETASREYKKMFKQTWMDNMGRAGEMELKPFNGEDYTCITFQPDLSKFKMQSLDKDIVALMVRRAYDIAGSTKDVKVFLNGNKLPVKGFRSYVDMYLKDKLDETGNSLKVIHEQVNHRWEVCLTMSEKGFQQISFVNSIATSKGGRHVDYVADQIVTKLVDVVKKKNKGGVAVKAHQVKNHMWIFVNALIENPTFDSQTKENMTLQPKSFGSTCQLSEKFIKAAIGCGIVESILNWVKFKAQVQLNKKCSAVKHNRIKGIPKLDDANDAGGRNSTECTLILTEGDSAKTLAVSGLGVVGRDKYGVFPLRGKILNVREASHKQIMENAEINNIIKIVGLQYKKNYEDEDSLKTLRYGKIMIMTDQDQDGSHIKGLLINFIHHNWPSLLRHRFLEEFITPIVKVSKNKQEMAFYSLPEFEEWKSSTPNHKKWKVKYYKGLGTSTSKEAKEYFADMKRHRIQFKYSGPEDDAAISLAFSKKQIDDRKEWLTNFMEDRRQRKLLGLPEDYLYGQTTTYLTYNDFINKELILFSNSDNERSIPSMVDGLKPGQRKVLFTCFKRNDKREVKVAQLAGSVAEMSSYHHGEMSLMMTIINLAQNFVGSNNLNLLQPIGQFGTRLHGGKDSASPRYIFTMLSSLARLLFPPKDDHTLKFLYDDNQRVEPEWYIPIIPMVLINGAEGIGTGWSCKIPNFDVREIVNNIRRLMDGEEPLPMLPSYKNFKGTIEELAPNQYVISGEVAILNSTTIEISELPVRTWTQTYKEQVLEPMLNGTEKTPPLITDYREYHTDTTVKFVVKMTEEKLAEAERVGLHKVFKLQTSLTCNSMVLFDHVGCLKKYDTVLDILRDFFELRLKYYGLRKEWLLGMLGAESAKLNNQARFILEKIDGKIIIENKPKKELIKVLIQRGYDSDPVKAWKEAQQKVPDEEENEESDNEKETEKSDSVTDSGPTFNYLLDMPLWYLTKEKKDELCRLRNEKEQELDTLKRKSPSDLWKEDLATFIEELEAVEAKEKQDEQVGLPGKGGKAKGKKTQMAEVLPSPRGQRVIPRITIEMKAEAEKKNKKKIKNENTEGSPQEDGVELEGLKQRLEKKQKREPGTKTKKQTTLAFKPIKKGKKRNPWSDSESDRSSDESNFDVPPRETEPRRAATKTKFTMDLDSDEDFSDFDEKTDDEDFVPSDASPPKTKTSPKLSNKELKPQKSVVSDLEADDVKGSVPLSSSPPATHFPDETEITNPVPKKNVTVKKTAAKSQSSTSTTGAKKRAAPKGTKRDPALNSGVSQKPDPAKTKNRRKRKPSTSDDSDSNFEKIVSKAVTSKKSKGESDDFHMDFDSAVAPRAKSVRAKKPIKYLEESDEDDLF
Reported Activity values are given for each entry in this list.
Your answer should be a plain number; it is taken to be in µM.

Recorded Activity, per entry:
- O=C(Nc1ccc(O)cc1)c1c(O)n(-c2ccccc2)c(=S)n(-c2ccccc2)c1=O: 200
- COc1cccc(NC(=O)c2c(O)n(-c3ccccc3)c(=S)n(-c3ccccc3)c2=O)c1: 100
- O=C(Nc1ccccc1)c1c(O)n(-c2ccccc2)c(=S)n(-c2ccccc2)c1=O: 200

Here is the next item to consider.
Query: Look up Activity of COc1cc(NC(=O)c2c(O)n(-c3ccccc3)c(=S)n(-c3ccccc3)c2=O)cc(OC)c1O and report it.
Reply: 200
